system: MRSA; assay: Kill or inhibit growth/proliferation; morphology, biofilm and growth disruption (Tables 5, 6); format: cell-based, Methicillin-resistant Staphylococcus aureus; parameters: key: A: Peptide aggregates; B: Less hyphal formation; Clumps; Diffuse clumps and small polyps; F: Diffuse growth; H: Thin; I: Growth inhibition; Microcolony formation; Rippled; Small polyps; Thick; W: Halo formation on top, microlonies on bottom; further: test concentration or dose not given here
assay.readout: Organism, effect

{"substance": "PF-458: peptide having multiple activities (chain 1 ISLIIFIMLFVVALFKCITNYKHQS; chain 2 ISLIIFIMLFVVALFKCITNYKHQS; Peptide with targeting and/or antimicrobial activity)", "reading": "MRSA (M)"}
{"substance": "PF-561 (ESLEADVQAELDTEAAKYPALPASF; Peptide with targeting and/or antimicrobial activity)", "reading": "MRSA (M)"}
{"substance": "PF-026: peptide having multiple activities (chain 1 SIHFIN; chain 2 SIHFIN; Peptide with targeting and/or antimicrobial activity)", "reading": "MRSA (M)"}

----------
system: microorganisms (e.g., bacteria, yeasts, fungi); assay: Targeting peptide binding to target microorganisms (Table 3); conditions: peptide binding in aqueous buffers varied by peptide solubility; preferably 1x PBS
assay.readout: Target(s) (microorganisms bound by the targeting peptide)

{"substance": "PF-652 (chain 1 FLAPARPDLQAQRQALAQ; chain 2 FLAPARPDLQAQRQALAQ; Peptide with targeting and/or antimicrobial activity)", "reading": "Mycobacteria spp"}
{"substance": "PF-694 (chain 1 DLIRPLYSMSAPSVA; chain 2 DLIRPLYSMSAPSVA; Peptide with targeting and/or antimicrobial activity)", "reading": "Mycobacteria spp"}
{"substance": "PF-657 (chain 1 YVANYTITQFGRDFDDRLAVAIHFA; chain 2 YVANYTITQFGRDFDDRLAVAIHFA; Peptide with targeting and/or antimicrobial activity)", "reading": "Mycobacteria spp"}

----------
system: microorganisms (e.g., bacteria, yeasts, fungi); test: Targeting peptide binding to target microorganisms (Table 3); details: microorganism(s) the targeting peptide binds; binding in aqueous buffers depending on peptide solubility, preferably 1x PBS
assay.readout: Target(s)

{"substance": "PF-337 (YMTKKLVEMAERQMAGK; Peptide with targeting and/or antimicrobial activity)", "study.target": "microorganisms (e.g., bacteria, yeasts, fungi)", "Target(s)": "S. epidermidis"}
{"substance": "PF-285 (VPAKLLRVIDEIPE; Peptide with targeting and/or antimicrobial activity)", "study.target": "microorganisms (e.g., bacteria, yeasts, fungi)", "Target(s)": "S. mutans"}
{"substance": "PF-217 (DWEFTHKTIPQKK; Peptide with targeting and/or antimicrobial activity)", "study.target": "microorganisms (e.g., bacteria, yeasts, fungi)", "Target(s)": "S. mutans"}
{"substance": "PF-159 (TMAFVEKAQLRVPVGDDLPV; Peptide with targeting and/or antimicrobial activity)", "study.target": "microorganisms (e.g., bacteria, yeasts, fungi)", "Target(s)": "S. epidermidis"}

Attention now turns to another entry.
Prompt line: Give Target(s) (microorganisms (e.g., bacteria, yeasts, fungi)) of the following substance: PF-323 (ARESIEKSHVPVDATIVGVVDSFEVFDE; Peptide with targeting and/or antimicrobial activity)
Response line: S. mutans

----------
test system: microorganisms (e.g., bacteria, yeasts, fungi); experiment: Targeting peptide binding to target microorganisms (Table 3); details: microorganism the targeting peptide binds; binding in aqueous buffers varied by peptide solubility, preferably 1x PBS
assay.readout: Target(s)

Example results:
{"substance": "PF-047 (NQEPSLQQDKEQKDNKG; Peptide with targeting and/or antimicrobial activity)", "study.target": "microorganisms (e.g., bacteria, yeasts, fungi)", "Target(s)": "S. mutans"}
{"substance": "1T-84 (FRKKRYGLSILLWLNAFTNLVNSIHAFYMTLF; Peptide with targeting and/or antimicrobial activity) [Peptide 1T-84]", "study.target": "microorganisms (e.g., bacteria, yeasts, fungi)", "Target(s)": "S. pneumoniae"}
{"substance": "1T-61 (HATLLPAVREAISRQLLPALVPRG; Peptide with targeting and/or antimicrobial activity) [Peptide 1T-61]", "study.target": "microorganisms (e.g., bacteria, yeasts, fungi)", "Target(s)": "P. aeruginosa"}
{"substance": "1T-81 (AIATGLDIVDGKFDGYLWA; Peptide with targeting and/or antimicrobial activity) [Peptide 1T-81]", "study.target": "microorganisms (e.g., bacteria, yeasts, fungi)", "Target(s)": "S. pneumoniae"}
{"substance": "1T-78 (FFKTIFVLILGALGVAAGLYIEKNYIDK; Peptide with targeting and/or antimicrobial activity) [Peptide 1T-78]", "study.target": "microorganisms (e.g., bacteria, yeasts, fungi)", "Target(s)": "S. pneumoniae"}
{"substance": "1T-28 (VSRDEAMEFIDREWTTLQPAGKSHA; Peptide with targeting and/or antimicrobial activity) [Peptide 1T-28]", "study.target": "microorganisms (e.g., bacteria, yeasts, fungi)", "Target(s)": "P. aeruginosa"}

Prompt line: Look up Target(s): 1T-195 (AASGFTYCASNGVWHPY; Peptide with targeting and/or antimicrobial activity) [Peptide 1T-195]
Response line: S. mutans

----------
tested on: microorganisms; experiment: Peptides having multiple activities (targeting/binding, antimicrobial, growth or phenotype altering)
Ends that are not written are not given here.
assay.readout: Activities

{"substance": "PF-542: peptide having multiple activities (chain 1 KKDNPSLNDQDKNAVLNLLALAK; chain 2 KKDNPSLNDQDKNAVLNLLALAK; Peptide with targeting and/or antimicrobial activity)", "study.target": "microorganisms", "Activities": "G B"}
{"substance": "PF-552: peptide having multiple activities (chain 1 ELDKADAALGPAKNLAPLDVINRS; chain 2 ELDKADAALGPAKNLAPLDVINRS; Peptide with targeting and/or antimicrobial activity)", "study.target": "microorganisms", "Activities": "G B"}
{"substance": "PF-478: peptide having multiple activities (chain 1 HLFILKSHLKPFPPFRYTYD; chain 2 HLFILKSHLKPFPPFRYTYD; Peptide with targeting and/or antimicrobial activity)", "study.target": "microorganisms", "Activities": "G B"}
{"substance": "PF-431: peptide having multiple activities (VAYAAICWW; Peptide with targeting and/or antimicrobial activity)", "study.target": "microorganisms", "Activities": "G B"}
{"substance": "PF-602: peptide having multiple activities (LEKEKKEYIEKLFKTK; Peptide with targeting and/or antimicrobial activity)", "study.target": "microorganisms", "Activities": "G B"}

Attention now turns to another entry.
Prompt line: Look up Activities: WSRVPGHSDTGWKVWHRW-NH2 [PF-547]
Response line: G B M

----------
system: M. luteus; test: Kill or inhibit growth/proliferation; morphology, biofilm and growth disruption (Tables 5, 6); format: cell-based, Micrococcus luteus; set-up: key: A: Peptide aggregates; B: Less hyphal formation; Clumps; Diffuse clumps and small polyps; F: Diffuse growth; H: Thin; I: Growth inhibition; Microcolony formation; Rippled; Small polyps; Thick; W: Halo formation on top, microlonies on bottom; further: test concentration or dose not given here
assay.readout: Organism, effect

{"substance": "PF-022: peptide having multiple activities (chain 1 MINELKNKNSGIMNNYVVTKESKL; chain 2 MINELKNKNSGIMNNYVVTKESKL; Peptide with targeting and/or antimicrobial activity)", "assay.readout": "Organism, effect", "reading": "M. luteus (A)"}
{"substance": "PF-612: peptide having multiple activities (GTTLKYGLERQLKIDIHPEITIINLNGGADEFAKL; Peptide with targeting and/or antimicrobial activity)", "assay.readout": "Organism, effect", "reading": "M. luteus (A)"}

----------
system: microorganisms; assay: Peptides having multiple activities (targeting/binding, antimicrobial, growth or phenotype altering)
assay.readout: Activities

Example results:
{"substance": "KNKKQTDILEKVKEILDKKKKTKSVGQKLY [PF-538]", "Activities": "G M"}
{"substance": "PF-292: peptide having multiple activities (SFVSTTVRLIFEESKRYKF; Peptide with targeting and/or antimicrobial activity)", "Activities": "G B"}
{"substance": "PF-390: peptide having multiple activities (chain 1 VVAYVITQVGAIRF; chain 2 VVAYVITQVGAIRF; Peptide with targeting and/or antimicrobial activity)", "Activities": "G B"}
{"substance": "PF-469: peptide having multiple activities (chain 1 YKVNYNNIDNHFNTLRH; chain 2 YKVNYNNIDNHFNTLRH; Peptide with targeting and/or antimicrobial activity)", "Activities": "G B"}
{"substance": "PF-024: peptide having multiple activities (chain 1 DLRKAK; chain 2 DLRKAK; Peptide with targeting and/or antimicrobial activity)", "Activities": "G B"}

Attention now turns to another entry.
Prompt line: Look up Activities: ASKQASKQASKQASKQASKQASRSLKNHLL [PF-523]
Response line: B M

----------
test system: microorganisms; assay: Peptides having multiple activities (targeting/binding, antimicrobial, growth or phenotype altering)
Ends that are not written are not given here.
assay.readout: Activities

Example results:
{"substance": "PF-125: peptide having multiple activities (YVVGALVILAVAGLIYSMLRKA; Peptide with targeting and/or antimicrobial activity)", "study.target": "microorganisms", "Activities": "G B"}
{"substance": "PF-356: peptide having multiple activities (chain 1 VSIKIGAIVIGMIGLMELLTE; chain 2 VSIKIGAIVIGMIGLMELLTE; Peptide with targeting and/or antimicrobial activity)", "study.target": "microorganisms", "Activities": "G B"}
{"substance": "PF-395: peptide having multiple activities (YCVPLGNMGNMNNKIW; Peptide with targeting and/or antimicrobial activity)", "study.target": "microorganisms", "Activities": "G B"}
{"substance": "PF-049: peptide having multiple activities (chain 1 AYYLKRREEKGK; chain 2 AYYLKRREEKGK; Peptide with targeting and/or antimicrobial activity)", "study.target": "microorganisms", "Activities": "G B"}

Attention now turns to another entry.
Prompt line: Look up Activities: LGLTAGVAYAAQPTNQPTNQPTNQPTNQPTNQPTNQPRW-NH2 [PF-520]
Response line: G B M
